Tested on: MCF10A
methodDescription: perturbation Mahalanobis distance of morphological profile vs DMSO controls (Mahalanobis distance (SD units)); higher = stronger morphological change, active = 7 or more
assayConditions: screen batch: Batch1_Mahalanobis_Distance; 72 h
Listed next: entries and their corresponding perturbation Mahalanobis distance.

Example molecules with recorded perturbation Mahalanobis distance:
1) C[C@@H]1O[C@@]2(CS1)CN1CCC2CC1 [Cevimeline] (1.5 µM) | 3.07 (inactive)
2) c1cnc2cc3c(cc2n1)C1CNCC3C1 [Varenicline] (0.24 µM) | 2.52 (inactive)
3) Nc1ccn([C@@H]2O[C@H](CO)[C@@H](O)[C@@H]2O)c(=O)n1 [Cytarabine] (10.3 µM) | 12.2 (active)

QUERY: Complete the entry with perturbation Mahalanobis distance for CNC(=O)c1cc(Oc2ccc(NC(=O)Nc3ccc(Cl)c(C(F)(F)F)c3)cc2)ccn1 [Sorafenib] (10.76 µM)
RESULT: 2.94 (inactive)

QUERY: Tell me measured perturbation Mahalanobis distance for Cc1[nH]c(=O)c(C#N)cc1-c1ccncc1 [Milrinone] (5.9 µM) please.
RESULT: 2.49 (inactive)
